Entry source: ChEMBL document CHEMBL4616681

Hi there, I'd appreciate the recorded Ratio IC50 for every entry that follows.
# EXPERIMENT_DESCRIPTION: Selectivity ratio of IC50 for human CYP11B1 expressed in human renal leiomyoblastoma cells harboring FDXR/FDX to IC50 for human CYP11B2 expressed in human renal leiomyoblastoma cells harboring FDXR/FDX
# Assay type: cell-based
The answer should be written as a number, with no unit following it.

# input Give reported Ratio IC50 value for CC1c2cc(Cl)ccc2C(=O)N1c1cccnc1 (stereo unspecified)
# output 10

# input Give reported Ratio IC50 value for "CC(=O)N[C@H]1CCCc2c1cncc2N1Cc2cc(Cl)ccc2C1=O"
# output 8

# input Give reported Ratio IC50 value for CC1CN(c2cccnc2)C(=O)c2ccc(Cl)cc21 (stereo unspecified)
# output 16

# input Give reported Ratio IC50 value for "CC(=O)N1CC[C@H](Oc2cncc(N3C(=O)c4ccc(Cl)cc4C3(C)C)c2)C1"
# output 81
